This listing pairs molecules with measured pIC50.
# Target system: ferroportin (Homo sapiens, UniProt Q9NP59)
# Assay method text: T47D cell-based ferroportin internalization assay in presence of mouse serum albumin (MSA)
# Parameters: a human breast carcinoma adherent cell line which endogenously expresses ferroportin; host or cells: T47D
# Setup conditions: Table 6E; T47D internalization assay with MSA
pIC50: −log10 of the molar value. Positions of bridges follow the written chain, without caps; N, C: chain ends. Non-standard residues stand in square brackets, D forms with d. Residues, ends and D or L forms follow the SMILES beside them. Groups on a side chain read outwards from the residue. *: point of attachment. X1 = C[N+](C)(CCNC(=O)CCCCCCCCCCCCCCCCC(=O)O)CC(=O)*; X5 = CCCCCCCCCCCCCCCC(=O)NCC[N+](C)(C)CC(=O)*; Dip = N[C@H](C(=O)O)C(c1ccccc1)c1ccccc1; Palmitoyl = CCCCCCCCCCCCCCCC(=O)*; NMeK = CN[C@@H](CCCCN)C(=O)O; Isovaleryl = CC(C)CC(=O)*; hSer = N[C@@H](CCO)C(=O)O; Ahx = NCCCCCC(=O)O

# pIC50 measured on ferroportin (Homo sapiens, UniProt Q9NP59) for item COC(=O)CC[C@H](NC(=O)CC(C)C)C(=O)N[C@H](C(=O)N[C@@H](Cc1c[nH]cn1)C(=O)N[C@H](C(=O)N1CCC[C@H]1C(=O)N[C@H]1CSSC[C@@H](C(=O)N(C)[C@@H](CCCCNC(=O)CCCCCNC(=O)C[N+](C)(C)CCNC(=O)CCCCCCCCCCCCCCCCC(=O)O)C(=O)N[C@H](C(=O)N[C@H](CCCCN)C(N)=O)C(c2ccccc2)c2ccccc2)NC1=O)C(c1ccccc1)c1ccccc1)[C@@H](C)OC [compound 147] (Isovaleryl-E(OMe)T(Me)H[Dip]PCC[NMeK]([Ahx-X1])[Dip][dK]-NH2; disulfide 6-7) = 6.30 to 7.00

# pIC50 measured on ferroportin (Homo sapiens, UniProt Q9NP59) for item CCCCCCCCCCCCCCCC(=O)NCC[N+](C)(C)CC(=O)NCCCCCC(=O)NCCCC[C@@H](C(=O)N[C@H](C(=O)N[C@H](CCCCN)C(N)=O)C(c1ccccc1)c1ccccc1)N(C)C(=O)[C@@H]1CSSC[C@H](NC(=O)[C@@H]2CCCN2C(=O)[C@@H](NC(=O)[C@H](Cc2cnc[nH]2)NC(=O)[C@@H](NC(=O)[C@H](CCC(=O)O)NC(=O)CC(C)C)[C@@H](C)O)C(c2ccccc2)c2ccccc2)C(=O)N1 [compound 197] (Isovaleryl-ETH[Dip]PCC[NMeK]([Ahx-X5])[Dip][dK]-NH2; disulfide 6-7) = 8.00 to 9.00

# pIC50 measured on ferroportin (Homo sapiens, UniProt Q9NP59) for item CCCCCCCCCCCCCCCC(=O)NCCCCCC(=O)NCCCC[C@@H](C(=O)N[C@H](C(=O)N[C@H](CCCCN)C(N)=O)C(c1ccccc1)c1ccccc1)N(C)C(=O)[C@@H]1CSSC[C@H](NC(=O)[C@@H]2CCCN2C(=O)[C@@H](NC(=O)[C@H](Cc2cnc[nH]2)NC(=O)[C@@H](NC(=O)[C@H](CCO)NC(=O)CC(C)C)[C@@H](C)O)C(c2ccccc2)c2ccccc2)C(=O)N1 [compound 168] (Isovaleryl-[hSer]TH[Dip]PCC[NMeK]([Ahx-Palmitoyl])[Dip][dK]-NH2; disulfide 6-7) = 8.00 to 9.00

# pIC50 measured on ferroportin (Homo sapiens, UniProt Q9NP59) for item CCCCCCCCCCCCCCCC(=O)NCC[N+](C)(C)CC(=O)NCCCC[C@@H](C(=O)N[C@H](C(=O)N[C@H](CCCCN)C(N)=O)C(c1ccccc1)c1ccccc1)N(C)C(=O)[C@@H]1CSSC[C@H](NC(=O)[C@@H]2CCCN2C(=O)[C@@H](NC(=O)[C@H](Cc2cnc[nH]2)NC(=O)[C@@H](NC(=O)[C@H](CCC(=O)O)NC(=O)CC(C)C)[C@@H](C)O)C(c2ccccc2)c2ccccc2)C(=O)N1 [compound 194] (Isovaleryl-ETH[Dip]PCC[NMeK](X5)[Dip][dK]-NH2; disulfide 6-7) = 8.00 to 9.00

---

# Target system: ferroportin (Homo sapiens, UniProt Q9NP59)
# Sequence (Q9NP59 1-571): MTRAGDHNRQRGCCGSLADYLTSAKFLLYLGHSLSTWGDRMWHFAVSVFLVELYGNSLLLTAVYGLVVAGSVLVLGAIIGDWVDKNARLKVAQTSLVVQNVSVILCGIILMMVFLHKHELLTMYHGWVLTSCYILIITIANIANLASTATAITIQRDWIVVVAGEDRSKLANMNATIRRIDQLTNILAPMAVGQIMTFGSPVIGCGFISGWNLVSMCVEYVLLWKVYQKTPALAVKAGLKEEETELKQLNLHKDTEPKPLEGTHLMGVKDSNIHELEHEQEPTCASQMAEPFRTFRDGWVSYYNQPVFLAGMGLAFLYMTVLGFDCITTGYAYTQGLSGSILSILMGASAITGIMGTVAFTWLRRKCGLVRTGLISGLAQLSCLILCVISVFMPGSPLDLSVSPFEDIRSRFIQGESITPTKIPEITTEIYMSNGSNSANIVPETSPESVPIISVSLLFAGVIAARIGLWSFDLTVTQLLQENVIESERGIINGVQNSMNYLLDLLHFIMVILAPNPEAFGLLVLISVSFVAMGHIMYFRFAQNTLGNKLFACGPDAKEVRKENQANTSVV
# Assay method text: T47D cell-based ferroportin internalization assay in presence of mouse serum albumin (MSA)
# Design: a human breast carcinoma adherent cell line which endogenously expresses ferroportin; host or cells: T47D
# Setup conditions: Table 6E; T47D internalization assay with MSA
pIC50: −log10 of the molar value. Starred links: 1 amine or outer side, 2 acyl side, 3 side chain; linkers in the order of their positions; H or OH if unused. Positions of bridges follow the written chain, without caps; N, C: chain ends. Non-standard residues stand in square brackets, D forms with d. Residues, ends and D or L forms follow the SMILES beside them. Groups on a side chain read outwards from the residue. *: point of attachment. X1 = C[N+](C)(CCNC(=O)CCCCCCCCCCCCCCCCC(=O)O)CC(=O)*; X5 = CCCCCCCCCCCCCCCC(=O)NCC[N+](C)(C)CC(=O)*; Dip = N[C@H](C(=O)O)C(c1ccccc1)c1ccccc1; γGlu = O=C(O)[C@H](CCC(=O)[*:2])N[*:1]; Palmitoyl = CCCCCCCCCCCCCCCC(=O)*; NMeT = CN[C@H](C(=O)O)[C@@H](C)O; β3hF = N[C@H](CC(=O)O)Cc1ccccc1; NMeK = CN[C@@H](CCCCN)C(=O)O; Isovaleryl = CC(C)CC(=O)*; dDap = NC[C@@H](N)C(=O)O; Ahx = NCCCCCC(=O)O
This listing pairs compounds with measured pIC50.

Compound	pIC50
CCCCCCCCCCCCCCCC(=O)NCCCCCC(=O)NCCCC[C@@H](C(=O)N[C@H](C(=O)N[C@H](CN)C(N)=O)C(c1ccccc1)c1ccccc1)N(C)C(=O)[C@@H]1CSSC[C@H](NC(=O)[C@@H]2CCCN2C(=O)[C@@H](NC(=O)[C@H](Cc2cnc[nH]2)NC(=O)[C@@H](NC(=O)[C@H](CCC(=O)O)NC(=O)CC(C)C)[C@@H](C)O)C(c2ccccc2)c2ccccc2)C(=O)N1 [compound 165] (Isovaleryl-ETH[Dip]PCC[NMeK]([Ahx-Palmitoyl])[Dip][dDap]-NH2; disulfide 6-7)	8.00 to 9.00

Recorded result, CCCCCCCCCCCCCCCC(=O)NCC[N+](C)(C)CC(=O)NCCCC[C@@H](C(=O)N[C@H](C(N)=O)C(c1ccccc1)c1ccccc1)N(C)C(=O)[C@@H]1CSSC[C@H](NC(=O)[C@@H]2CCCN2C(=O)[C@@H](NC(=O)[C@H](Cc2cnc[nH]2)NC(=O)[C@H]([C@@H](C)O)N(C)C(=O)[C@H](CCC(=O)O)NC(=O)CC(C)C)C(c2ccccc2)c2ccccc2)C(=O)N1 [compound 169] (Isovaleryl-E[NMeT]H[Dip]PCC[NMeK](X5)[Dip]-NH2; disulfide 6-7) , pIC50: 8.00 to 9.00

Recorded result, CCCCCCCCCCCCCCCC(=O)NCC[N+](C)(C)CC(=O)NCCCC[C@H]1C(=O)N[C@@H](C(c2ccccc2)c2ccccc2)C(=O)N[C@@H](C(N)=O)CCCCNC(=O)CC[C@H](NC(=O)CC(C)C)C(=O)N[C@@H]([C@@H](C)O)C(=O)N[C@@H](Cc2c[nH]cn2)C(=O)N[C@@H](C(c2ccccc2)c2ccccc2)C(=O)N2CCC[C@H]2C(=O)N[C@H]2CSSC[C@H](NC2=O)C(=O)N1C [compound 143] (Isovaleryl-ETH[Dip]PCC[NMeK](X5)[Dip][dK]-NH2; lactam 1-10; disulfide 6-7) , pIC50: 8.00 to 9.00

Recorded result, COC(=O)CC[C@H](NC(=O)CC(C)C)C(=O)N[C@H](C(=O)N[C@@H](Cc1c[nH]cn1)C(=O)N[C@H](C(=O)N1CCC[C@H]1C(=O)N[C@H]1CSSC[C@@H](C(=O)N[C@@H](CCCCNC(=O)CCCCCNC(=O)C[N+](C)(C)CCNC(=O)CCCCCCCCCCCCCCCCC(=O)O)C(=O)N[C@H](C(=O)N[C@H](CCCCN)C(N)=O)C(c2ccccc2)c2ccccc2)NC1=O)C(c1ccccc1)c1ccccc1)[C@@H](C)O [compound 211] (Isovaleryl-E(OMe)TH[Dip]PCCK([Ahx-X1])[Dip][dK]-NH2; disulfide 6-7) , pIC50: 7.00 to 8.00

Recorded result, CCCCCCCCCCCCCCCC(=O)NCCCCCC(=O)NCCCC[C@@H](C(=O)N[C@H](C(=O)N[C@H](CCCCN)C(N)=O)C(c1ccccc1)c1ccccc1)N(C)C(=O)[C@@H]1CSSC[C@H](NC(=O)[C@@H]2CCCN2C(=O)[C@@H](NC(=O)[C@H](Cc2cnc[nH]2)NC(=O)[C@@H]2CCCN2C(=O)[C@H](CCC(=O)O)NC(=O)CC(C)C)C(c2ccccc2)c2ccccc2)C(=O)N1 [compound 171] (Isovaleryl-EPH[Dip]PCC[NMeK]([Ahx-Palmitoyl])[Dip][dK]-NH2; disulfide 6-7) , pIC50: 8.00 to 9.00

Recorded result, CC(C)CC(=O)N[C@@H](CCC(=O)O)C(=O)N(C)[C@H](C(=O)N[C@@H](Cc1c[nH]cn1)C(=O)N[C@H](C(=O)N1CCC[C@H]1C(=O)N[C@H]1CSSC[C@@H](C(=O)N(C)[C@@H](CCCCNC(=O)CCCCCNC(=O)C[N+](C)(C)CCNC(=O)CCCCCCCCCCCCCCCCC(=O)O)C(=O)N[C@H](C(=O)N[C@H](CCCCN)C(N)=O)C(c2ccccc2)c2ccccc2)NC1=O)C(c1ccccc1)c1ccccc1)[C@@H](C)O [compound 190] (Isovaleryl-E[NMeT]H[Dip]PCC[NMeK]([Ahx-X1])[Dip][dK]-NH2; disulfide 6-7) , pIC50: 6.30 to 7.00

Recorded result, CCCCCCCCCCCCCCCC(=O)N[C@@H](CCC(=O)NCCCC[C@@H](C(=O)N[C@H](CC(=O)N[C@H](CCCCN)C(N)=O)Cc1ccccc1)N(C)C(=O)[C@@H]1CSSC[C@H](NC(=O)[C@@H]2CCCN2C(=O)[C@@H](NC(=O)[C@H](Cc2cnc[nH]2)NC(=O)[C@@H](NC(=O)[C@H](CCC(=O)O)NC(=O)CC(C)C)[C@@H](C)O)C(c2ccccc2)c2ccccc2)C(=O)N1)C(=O)O [compound 223] (Isovaleryl-ETH[Dip]PCC[NMeK]([γGlu-Palmitoyl])[β3hF][dK]-NH2; disulfide 6-7) , pIC50: 8.00 to 9.00

Recorded result, COC(=O)CC[C@H](NC(=O)CC(C)C)C(=O)N[C@H](C(=O)N[C@@H](Cc1c[nH]cn1)C(=O)N[C@H](C(=O)N1CCC[C@H]1C(=O)N[C@H]1CSSC[C@@H](C(=O)N[C@H](CCCCNC(=O)CCCCCNC(=O)C[N+](C)(C)CCNC(=O)CCCCCCCCCCCCCCCCC(=O)O)C(=O)N[C@H](C(=O)N[C@H](CCCCN)C(N)=O)C(c2ccccc2)c2ccccc2)NC1=O)C(c1ccccc1)c1ccccc1)[C@@H](C)O [compound 208] (Isovaleryl-E(OMe)TH[Dip]PCC[dK]([Ahx-X1])[Dip][dK]-NH2; disulfide 6-7) , pIC50: 7.00 to 8.00

Hello, the source for this data is patent US20250277012A1, in case you need it.
